The measured values listed here are drawn from ChEMBL document CHEMBL1154327.

- System: Rattus norvegicus
- assay.overview: Antiinflammatory activity against gamma carrageenan-induced pleurisy in Wistar rat assessed as inhibition of exudate production in pleural cavity at 5 mg/kg, ip administered 30 mins before gamma carrageenan challenge measured after 4 hrs
- Format: functional
- setup.conditions: route intraperitoneal
I'd appreciate it if you could supply inhibition in vivo at 5 mg/kg values for the items below.
Report the value in % with no unit label.

Rattus norvegicus inhibition in vivo at 5 mg/kg of `O=S(=O)(Nc1ccncc1Nc1cccc(Br)c1)C(F)(F)F` is 42.1

Rattus norvegicus inhibition in vivo at 5 mg/kg of CS(=O)(=O)Nc1ccc([N+](=O)[O-])cc1Oc1ccccc1 [NIMESULIDE] is 31.1

Rattus norvegicus inhibition in vivo at 5 mg/kg of `O=S(=O)(Nc1ccncc1Nc1ccccc1)C(F)(F)F` is 25.4

Rattus norvegicus inhibition in vivo at 5 mg/kg of `CS(=O)(=O)Nc1ccncc1Nc1cccc(Cl)c1` is 11.5

Rattus norvegicus inhibition in vivo at 5 mg/kg of `Cc1ccc(-c2cc(C(F)(F)F)nn2-c2ccc(S(N)(=O)=O)cc2)cc1` is 15.7

Rattus norvegicus inhibition in vivo at 5 mg/kg of `O=S(=O)(Nc1ccncc1Nc1ccc(Cl)cc1)C(F)(F)F` is 39.4

Rattus norvegicus inhibition in vivo at 5 mg/kg of `Cc1cccc(Nc2cnccc2NS(=O)(=O)C(F)(F)F)c1` is 23.5

Rattus norvegicus inhibition in vivo at 5 mg/kg of `O=S(=O)(Nc1ccncc1Nc1cccc(Cl)c1)C(F)(F)F` is 16.1

----------
- experimental.target: Prostaglandin G/H synthase 2 (Homo sapiens, UniProt P35354)
- Sequence (P35354 whole entry): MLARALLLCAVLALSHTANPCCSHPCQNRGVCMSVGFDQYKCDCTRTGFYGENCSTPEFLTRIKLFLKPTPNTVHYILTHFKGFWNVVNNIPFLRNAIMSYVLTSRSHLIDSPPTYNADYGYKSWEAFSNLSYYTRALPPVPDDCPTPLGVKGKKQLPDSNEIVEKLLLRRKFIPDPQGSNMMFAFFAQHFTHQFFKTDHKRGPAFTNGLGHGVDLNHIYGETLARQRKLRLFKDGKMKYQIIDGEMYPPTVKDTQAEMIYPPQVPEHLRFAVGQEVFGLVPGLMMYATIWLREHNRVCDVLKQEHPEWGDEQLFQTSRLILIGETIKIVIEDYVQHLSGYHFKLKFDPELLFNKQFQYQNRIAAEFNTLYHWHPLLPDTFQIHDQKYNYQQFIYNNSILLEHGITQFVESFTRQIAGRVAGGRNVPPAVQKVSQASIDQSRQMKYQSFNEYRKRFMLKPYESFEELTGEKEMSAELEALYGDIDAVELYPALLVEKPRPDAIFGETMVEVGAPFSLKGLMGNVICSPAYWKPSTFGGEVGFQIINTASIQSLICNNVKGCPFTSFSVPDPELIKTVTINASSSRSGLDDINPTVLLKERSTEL
We'd kindly ask you to apply these IC50 classes: bottom bin (below 0.5 µM), middle bin (0.5 µM to below 3 µM), top bin (3 µM or more)

State the band of `Cc1cccc(Nc2cnccc2NS(C)(=O)=O)c1`
top bin

State the band of `CCc1cccc(Nc2cnccc2NS(=O)(=O)C(F)(F)F)c1`
bottom bin

State the band of `CS(=O)(=O)Nc1ccncc1Nc1ccc(Br)cc1`
top bin

State the band of `O=S(=O)(Nc1ccncc1Nc1ccccc1Cl)C(F)(F)F`
middle bin

State the band of `CS(=O)(=O)Nc1ccncc1NC1CCCC1`
top bin

State the band of `COc1cccc(Nc2cnccc2NS(=O)(=O)C(F)(F)F)c1`
middle bin

State the band of `CCc1ccc(Nc2cnccc2NS(=O)(=O)C(F)(F)F)cc1`
middle bin

State the band of `Cc1ccc(Nc2cnccc2NS(=O)(=O)C(F)(F)F)cc1`
bottom bin

State the band of `COc1ccc(Nc2cnccc2NS(=O)(=O)C(F)(F)F)cc1`
bottom bin

State the band of `CCc1ccccc1Nc1cnccc1NS(=O)(=O)C(F)(F)F`
top bin

State the band of `Cc1ccccc1Nc1cnccc1NS(=O)(=O)C(F)(F)F`
middle bin

State the band of `O=S(=O)(Nc1ccncc1Nc1ccc(Cl)cc1)C(F)(F)F`
bottom bin

----------
- experimental.target: Prostaglandin G/H synthase 1 (Homo sapiens)
- Sequence (P23219 whole entry): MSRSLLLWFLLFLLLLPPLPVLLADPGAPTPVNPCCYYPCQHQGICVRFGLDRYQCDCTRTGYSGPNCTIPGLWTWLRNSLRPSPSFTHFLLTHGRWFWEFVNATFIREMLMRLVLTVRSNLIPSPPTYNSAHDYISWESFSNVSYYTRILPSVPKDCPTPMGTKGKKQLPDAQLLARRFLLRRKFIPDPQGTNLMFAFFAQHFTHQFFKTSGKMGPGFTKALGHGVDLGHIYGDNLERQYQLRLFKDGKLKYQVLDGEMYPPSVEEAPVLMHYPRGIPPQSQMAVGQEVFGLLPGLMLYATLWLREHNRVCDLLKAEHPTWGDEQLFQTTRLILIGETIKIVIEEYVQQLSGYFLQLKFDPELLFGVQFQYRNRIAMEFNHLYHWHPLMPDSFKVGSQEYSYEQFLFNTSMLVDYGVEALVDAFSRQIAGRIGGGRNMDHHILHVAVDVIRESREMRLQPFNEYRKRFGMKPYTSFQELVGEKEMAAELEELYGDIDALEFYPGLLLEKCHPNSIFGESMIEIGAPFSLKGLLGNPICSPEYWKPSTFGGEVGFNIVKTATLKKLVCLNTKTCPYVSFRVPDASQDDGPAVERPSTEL
metric: log10(IC50) (log10 of the value in µM)
Note the log scale: values are log10 of IC50 expressed in µM.

Prostaglandin G/H synthase 1 (Homo sapiens) log10(IC50) of `O=S(=O)(Nc1ccncc1Nc1ccc(Br)cc1)C(F)(F)F` is 0.20

Prostaglandin G/H synthase 1 (Homo sapiens) log10(IC50) of `CS(=O)(=O)Nc1ccncc1Nc1ccccc1` is 0.35

Prostaglandin G/H synthase 1 (Homo sapiens) log10(IC50) of `CCc1cccc(Nc2cnccc2NS(=O)(=O)C(F)(F)F)c1` is -0.16

Prostaglandin G/H synthase 1 (Homo sapiens) log10(IC50) of `CCc1ccc(Nc2cnccc2NS(=O)(=O)C(F)(F)F)cc1` is 0.09

Prostaglandin G/H synthase 1 (Homo sapiens) log10(IC50) of `Cc1cccc(Nc2cnccc2NS(C)(=O)=O)c1` is 0.41

Prostaglandin G/H synthase 1 (Homo sapiens) log10(IC50) of `O=S(=O)(Nc1ccncc1NC1CCCC1)C(F)(F)F` is 0.06

Prostaglandin G/H synthase 1 (Homo sapiens) log10(IC50) of `COc1cccc(Nc2cnccc2NS(C)(=O)=O)c1` is 1.40

Prostaglandin G/H synthase 1 (Homo sapiens) log10(IC50) of `O=S(=O)(Nc1ccncc1Nc1ccccc1Cl)C(F)(F)F` is -0.72

Prostaglandin G/H synthase 1 (Homo sapiens) log10(IC50) of `COc1ccc(Nc2cnccc2NS(=O)(=O)C(F)(F)F)cc1` is -1.00

Prostaglandin G/H synthase 1 (Homo sapiens) log10(IC50) of `O=S(=O)(CCC(F)(F)F)Nc1ccncc1Nc1ccccc1` is 0.31

Prostaglandin G/H synthase 1 (Homo sapiens) log10(IC50) of `CS(=O)(=O)Nc1ccncc1Nc1cccc(Br)c1` is 1.30

Prostaglandin G/H synthase 1 (Homo sapiens) log10(IC50) of `O=S(=O)(Nc1ccncc1NC1CCCCCC1)C(F)(F)F` is -0.12

Prostaglandin G/H synthase 1 (Homo sapiens) log10(IC50) of `CS(=O)(=O)Nc1ccncc1Nc1ccc(Br)cc1` is 0.33

Prostaglandin G/H synthase 1 (Homo sapiens) log10(IC50) of `COc1ccccc1Nc1cnccc1NS(C)(=O)=O` is 0.99

Prostaglandin G/H synthase 1 (Homo sapiens) log10(IC50) of `O=S(=O)(Nc1ccncc1NC1CCCCC1)C(F)(F)F` is -1.10

Prostaglandin G/H synthase 1 (Homo sapiens) log10(IC50) of `O=S(=O)(Nc1ccncc1Nc1ccc(Cl)cc1)C(F)(F)F` is 0.06

Prostaglandin G/H synthase 1 (Homo sapiens) log10(IC50) of `Cc1ccccc1Nc1cnccc1NS(C)(=O)=O` is -0.25

Prostaglandin G/H synthase 1 (Homo sapiens) log10(IC50) of `Cc1ccc(Nc2cnccc2NS(=O)(=O)C(F)(F)F)cc1` is -0.77

Prostaglandin G/H synthase 1 (Homo sapiens) log10(IC50) of `COc1ccccc1Nc1cnccc1NS(=O)(=O)C(F)(F)F` is 0.05

Prostaglandin G/H synthase 1 (Homo sapiens) log10(IC50) of `CS(=O)(=O)Nc1ccncc1Nc1ccccc1Cl` is -0.32

Prostaglandin G/H synthase 1 (Homo sapiens) log10(IC50) of `COc1cccc(Nc2cnccc2NS(=O)(=O)C(F)(F)F)c1` is 0.00

Prostaglandin G/H synthase 1 (Homo sapiens) log10(IC50) of `Cc1ccccc1Nc1cnccc1NS(=O)(=O)C(F)(F)F` is -0.32

Prostaglandin G/H synthase 1 (Homo sapiens) log10(IC50) of `CCc1ccc(Nc2cnccc2NS(C)(=O)=O)cc1` is 0.44

Prostaglandin G/H synthase 1 (Homo sapiens) log10(IC50) of `CCc1ccccc1Nc1cnccc1NS(C)(=O)=O` is 0.58

Prostaglandin G/H synthase 1 (Homo sapiens) log10(IC50) of `Cc1cccc(Nc2cnccc2NS(=O)(=O)C(F)(F)F)c1` is 0.00

Prostaglandin G/H synthase 1 (Homo sapiens) log10(IC50) of `CCc1cccc(Nc2cnccc2NS(C)(=O)=O)c1` is 1.78

Prostaglandin G/H synthase 1 (Homo sapiens) log10(IC50) of `O=S(=O)(Nc1ccncc1Nc1cccc(Cl)c1)C(F)(F)F` is 0.04

Prostaglandin G/H synthase 1 (Homo sapiens) log10(IC50) of `Cc1ccc(Nc2cnccc2NS(C)(=O)=O)cc1` is 0.12

Prostaglandin G/H synthase 1 (Homo sapiens) log10(IC50) of `CS(=O)(=O)Nc1ccncc1NC1CCCCC1` is -0.57

Prostaglandin G/H synthase 1 (Homo sapiens) log10(IC50) of `COc1ccc(Nc2cnccc2NS(C)(=O)=O)cc1` is -0.25

Prostaglandin G/H synthase 1 (Homo sapiens) log10(IC50) of `CCc1ccccc1Nc1cnccc1NS(=O)(=O)C(F)(F)F` is 0.51

Prostaglandin G/H synthase 1 (Homo sapiens) log10(IC50) of `CS(=O)(=O)Nc1ccncc1Nc1ccc(Cl)cc1` is 0.12

Prostaglandin G/H synthase 1 (Homo sapiens) log10(IC50) of `CS(=O)(=O)Nc1ccncc1Nc1cccc(Cl)c1` is 0.85

Prostaglandin G/H synthase 1 (Homo sapiens) log10(IC50) of `CS(=O)(=O)Nc1ccncc1NC1CCCCCC1` is -0.03

Prostaglandin G/H synthase 1 (Homo sapiens) log10(IC50) of `CS(=O)(=O)Nc1ccncc1NC1CCCC1` is 0.93

----------
I'd appreciate it if you could supply inhibition in vivo at 10 mg/kg values for the items below.
- System: Rattus norvegicus
- assay.overview: Antiinflammatory activity against gamma carrageenan-induced pleurisy in Wistar rat assessed as inhibition of exudate production in pleural cavity at 10 mg/kg, ip administered 30 mins before gamma carrageenan challenge measured after 4 hrs
- Assay type: functional
- setup.conditions: route intraperitoneal
Report the value in % with no unit label.

Entry CS(=O)(=O)Nc1ccc([N+](=O)[O-])cc1Oc1ccccc1 [NIMESULIDE] ; inhibition in vivo at 10 mg/kg = 48.4

Entry `O=S(=O)(Nc1ccncc1Nc1ccc(Cl)cc1)C(F)(F)F` ; inhibition in vivo at 10 mg/kg = 51.4

Entry `Cc1ccc(-c2cc(C(F)(F)F)nn2-c2ccc(S(N)(=O)=O)cc2)cc1` ; inhibition in vivo at 10 mg/kg = 27.3

Entry `CS(=O)(=O)Nc1ccncc1Nc1cccc(Cl)c1` ; inhibition in vivo at 10 mg/kg = 18.3

Entry `O=S(=O)(Nc1ccncc1Nc1cccc(Cl)c1)C(F)(F)F` ; inhibition in vivo at 10 mg/kg = 40

Entry `O=S(=O)(Nc1ccncc1Nc1cccc(Br)c1)C(F)(F)F` ; inhibition in vivo at 10 mg/kg = 52.2

Entry `Cc1cccc(Nc2cnccc2NS(=O)(=O)C(F)(F)F)c1` ; inhibition in vivo at 10 mg/kg = 50.3

Entry `O=S(=O)(Nc1ccncc1Nc1ccccc1)C(F)(F)F` ; inhibition in vivo at 10 mg/kg = 55.7
